Test system: XIP peptide (Xip251-270) binding
Assay: XIP fragment 251-270 binding compounds – biochemical, small-molecule microarray, fluorescence 635/667 nm, 0.1 µg/mL protein, primary screen (AID 1182)
Conditions: fluorescent protein binding, 635 nm, higher = more signal, called active from +8 up or from −8 down
Active and inactive are the calls of the source.
// reported composite z-score per item

For orientation, consider the following solved cases.
compound="CC(C)(C)N1CC=CC23O[C@@H]4C=CCOC(=O)[C@@H]4[C@H]2C(=O)N(CCO)[C@@H]3C1=O (some centres not stated)" study_system="XIP peptide (Xip251-270) binding" measurement_name="composite z-score" measured_value="0.218 (inactive)"
compound="COc1cc(C(O)C2C=CC3C(=O)N(c4ccccc4)C(=O)C3N2Nc2ccccc2F)cc(OC)c1OC (configuration not stated)" study_system="XIP peptide (Xip251-270) binding" measurement_name="composite z-score" measured_value="0.283 (inactive)"

input: Provide one value: measured composite z-score of C=CCC(OC(C)=O)[C@@H]1[C@@H](N(Cc2ccc(-c3ccccc3)cc2)C(=O)c2cccc3ccccc23)c2cc(OCCCO)ccc2N1C(=O)Cc1ccc(OC)cc1 (some centres not stated)
output: 0.15 (inactive)

input: Determine its reported composite z-score: `COC(=O)[C@@]1(Cc2ccc(F)cc2)[C@H]2c3cc(C(=O)N(C)C)n(CCc4ccc(O)c(O)c4)c3C[C@H]2CN1C(=O)c1ccccc1`
output: -0.574 (inactive)

input: Kindly indicate its recorded composite z-score. Item: `COCC(=C=CC[C@H](O)c1ccccc1OCCO)C[C@H](O)COCc1ccccc1`
output: 0.195 (inactive)

input: Let me know recorded composite z-score for `O=C(O)[C@H](Cc1ccccc1)n1cc(C2(O)CCCCC2)nn1` , thanks.
output: -0.0467 (inactive)

input: Answer with the recorded composite z-score of `COCCOC(=O)N1C(=O)[C@@]2(c3cc(C#CCNC(N)=O)ccc31)[C@H](C(=O)Nc1nc3ccccc3s1)[C@H]1C(=O)O[C@H](c3ccccc3)[C@H](c3ccccc3)N1[C@@H]2c1ccccc1OCCO` only.
output: 0.278 (inactive)

* * *

Target: NADPH oxidase 5 (Homo sapiens) (UniProt Q96PH1)
Sequence (Q96PH1 whole entry, looked up): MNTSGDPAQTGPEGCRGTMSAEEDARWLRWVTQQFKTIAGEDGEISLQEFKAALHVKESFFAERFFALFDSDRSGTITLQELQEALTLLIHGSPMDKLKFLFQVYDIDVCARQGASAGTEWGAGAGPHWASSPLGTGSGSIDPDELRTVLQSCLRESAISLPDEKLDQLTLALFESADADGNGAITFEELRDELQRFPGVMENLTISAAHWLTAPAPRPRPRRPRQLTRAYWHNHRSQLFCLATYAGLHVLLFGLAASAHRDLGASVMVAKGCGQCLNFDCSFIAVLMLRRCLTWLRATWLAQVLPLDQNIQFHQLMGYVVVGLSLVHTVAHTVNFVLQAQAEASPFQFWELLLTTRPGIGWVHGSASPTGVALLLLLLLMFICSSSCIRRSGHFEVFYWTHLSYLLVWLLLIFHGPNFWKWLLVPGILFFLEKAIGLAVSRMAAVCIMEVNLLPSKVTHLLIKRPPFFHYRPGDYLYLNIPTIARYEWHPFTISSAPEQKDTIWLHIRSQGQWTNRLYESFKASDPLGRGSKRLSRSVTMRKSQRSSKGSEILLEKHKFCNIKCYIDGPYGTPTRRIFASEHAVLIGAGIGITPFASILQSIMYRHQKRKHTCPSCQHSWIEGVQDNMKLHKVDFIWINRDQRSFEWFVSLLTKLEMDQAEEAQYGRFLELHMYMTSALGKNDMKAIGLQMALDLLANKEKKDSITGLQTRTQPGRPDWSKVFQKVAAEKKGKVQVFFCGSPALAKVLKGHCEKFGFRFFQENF
Assay: compounds shifting NOX5 Amplex Red fluorescence – cell-based, HEK293-NOX5, NOX inhibitor project, primary screen (AID 1161)
Conditions: HEK293-NOX5, ionomycin, 45 min, higher = more signal
Measurement name: z-score

Consider the worked cases shown below.
compound="O=C1C2C=CC(C(O)c3cccs3)N(Nc3ccc([N+](=O)[O-])cc3)C2C(=O)N1c1ccccc1 (configuration not stated)" measurement_name=z-score measured_value=-1.55
compound=COc1ccc(C(=O)Nc2cccc(CN3C(=O)[C@@]4(O[C@@H](CC(=O)N5CCC[C@H]5CO)[C@H]([Si](C)(C)c5ccc(OC)cc5)[C@H]4C)c4ccccc43)c2)cc1 measurement_name=z-score measured_value=4.72
compound=CO[C@H]1O[C@H](CO)[C@@H](OC(=O)Nc2ccccc2)[C@H](OC(=O)Nc2ccccc2)[C@H]1OC(=O)Nc1ccccc1 measurement_name=z-score measured_value=-2.32
compound=CC[C@@H]1C=C(C(=O)O)[C@H](c2ccc(OC)cc2)N1S(=O)(=O)c1ccc(C)cc1 measurement_name=z-score measured_value=-0.215
compound=O=C(NC1CC1)[C@@H]1c2ccccc2C(=O)N(Cc2cc(C(F)(F)F)cc(C(F)(F)F)c2)[C@H]1c1ccc(CO)cc1 measurement_name=z-score measured_value=-2.23
compound="NC(=O)N1C(=O)C2C(C1=O)C1C=C(CCCO)C2C(c2ccc(CN3CCCC3)cc2)N1Cc1sc2ccccc2c1Cl (configuration not stated)" measurement_name=z-score measured_value=0.198

input: Supply measured z-score of `O=C1[C@H]2C=C(I)[C@H](C[C@@H]2c2ccccc2)[C@@]12CO2` in your reply.
output: -0.666

* * *

Biological target: Homeobox protein Hox-A13 (Mus musculus)
Assay: disruptors of Hoxa13 oligonucleotide interaction – biochemical, fluorescence polarization, labeled oligonucleotide, primary screen (AID 1185)
Conditions: Hoxa13:DNA binding, 15 min, higher = more signal, called active from +8 up or from −8 down
Measurement name: z-score
I only need the number, thanks.

// worked examples, z-score included
test_smiles=COC(=O)C[C@H]1O[C@@]2(C[C@@H]1[Si](C)(C)C)C(=O)N(C)c1ccccc12 measured_value=-0.91
test_smiles=O=C1O[C@H](c2ccccc2)[C@H](c2ccccc2)N2[C@H]1[C@@H](C(=O)N1CCN(c3ncccn3)CC1)[C@]1(C(=O)Nc3ccc(C#CCCO)cc31)[C@H]2c1ccc(O)cc1 measured_value=-2.81
test_smiles=COC(=O)[C@@]1(Cc2ccccc2)[C@H]2c3cc(C(=O)N(C)C)n(Cc4ccc(C(F)(F)F)nc4)c3C[C@H]2CN1C(=O)c1ccccc1 measured_value=-3.46

input: Look up and state reported z-score for `O=C1C[C@@](C(=O)NC2CC2)(c2ccc([N+](=O)[O-])cc2)[C@@H](c2ccc(CO)cc2)N1C1CCCCC1`
output: -3.19

* * *

Assay: probe aEGFR binding to arrayed compounds – biochemical, biotinylated probe, 635/667 nm fluorescence, primary screen (AID 1097);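 also: probe is a biotinylated anti-EGFR antibody binding compounds printed on slides; score combines fluorescence near 667 nm and signal to noise of each spot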
Details: small-molecule microarray, higher = more signal
Measurement name: composite z-score
The answer should be a number; do not append a unit.

Please review the entries below; each comes with its answer.
compound=O=C1N(CCS(=O)(=O)c2ccccc2)c2ccccc2C[C@]12N=C(c1ccc(OCCCO)cc1)O[C@@H]2c1ccccc1 measurement_name="composite z-score" measured_value=-0.164
compound="O=C1OCCC=C[C@H]2OC34C=CCN(c5ccc6ccccc6c5)C(=O)[C@H]3N(CCO)C(=O)[C@@H]4C12 (stereo partly drawn)" measurement_name="composite z-score" measured_value=-0.0353
compound=CCCCC(=C=CC[C@H](O)c1ccc(CO)o1)CCO measurement_name="composite z-score" measured_value=-0.0041
compound=COC(=O)[C@@]1(Cc2ccccc2)[C@H]2c3cc(C(=O)N(C)C)n(Cc4ccc(C(F)(F)F)nc4)c3C[C@H]2CN1C(=O)c1ccccc1 measurement_name="composite z-score" measured_value=0.228

Now look at this entry.
input: Query composite z-score for `Cc1ccc(S[C@]2(C(=O)NC(C)C)CC(=O)N(C3CCCCC3)[C@@H]2c2ccc(CO)cc2I)cc1`
output: 0.0203

* * *

Assay: compound effects on hepatocellular carcinoma cell viability – HepG2, calcein-AM fluorescence, 48 h, basal, profiling panel (AID 1164)
Settings: higher = more signal
Response key: True means z-score >= -0.3; False means z-score < -0.3.

# count of solved cases: 3
compound=O=C(NC1CC1)[C@@H]1c2ccccc2C(=O)N(Cc2cc(C(F)(F)F)cc(C(F)(F)F)c2)[C@H]1c1ccc(CO)cc1 discrete_label=True
compound=CCCNC(=O)[C@@]1(c2ccc([N+](=O)[O-])cc2)CC(=O)N(C(C)C)[C@@H]1c1ccc(CO)cc1 discrete_label=False
compound=COCC(=C=CC[C@H](O)c1ccccc1OCCO)C[C@H](O)COCc1ccccc1 discrete_label=True

input: Hello, I need to know if C=CCC(OC(C)=O)[C@@H]1[C@@H](N(Cc2cc3ccccc3o2)C(=O)Cc2ccc(OC)cc2)c2cc(OCCCO)ccc2N1C(=O)c1ccc2ccccc2n1 (some centres not stated) has measured z-score not below -0.3. Thanks!
output: True

input: Could you tell me if the measured z-score of `COCCOC(=O)N1C(=O)[C@@]2(c3cc(C#CCC(C(=O)OC)C(=O)OC)ccc31)[C@H](C(=O)Nc1nc3ccccc3s1)[C@H]1C(=O)O[C@H](c3ccccc3)[C@H](c3ccccc3)N1[C@@H]2c1ccc(O)cc1` reaches -0.3 or more?
output: True

input: Decide: z-score of `C=CC[C@@]1(C(=O)OC)N=C(c2ccc(OCCCO)cc2)O[C@@H]1c1ccccc1N=[N+]=[N-]` >= -0.3?
output: False

* * *

Experiment: change in splice reporter luminescence, either direction, cell-based, HEK293, spliceosome inhibition project, primary screen (AID 1101);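 also: HEK293 cells carrying a splicing-competent luciferase reporter gene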
Settings: HEK293 splicing luciferase reporter, 24 h, higher = more signal, called active from +8 up or from −8 down
Measurement name: z-score
Form: value (number only, do not type unit).

test_smiles=Cc1ccc(S[C@]2(C(=O)NCC(F)(F)F)CC(=O)N(Cc3ccccc3C(F)(F)F)[C@@H]2c2ccc(CO)cc2)cc1 measured_value=0.338
test_smiles=CCCCCCc1nc(-c2ccc(-c3ccc(Cl)c(Cl)c3)o2)cc2c1[Si](C(C)C)(C(C)C)OC2 measured_value=-2.26
test_smiles=O=C1[C@@H]2[C@@H](CC(COc3ccccc3)=C([C@H](O)CCc3ccccc3)[C@@H]2CO)C(=O)N1Cc1ccccc1 measured_value=0.187

input: Given `O=C1O[C@@H](c2ccccc2)[C@@H](c2ccccc2)N2[C@@H](c3ccc(OCCO)cc3)[C@]3(C(=O)Nc4ccc(C#CC5(O)CCCCCC5)cc43)[C@@H](C(=O)O)[C@H]12` , respond with its z-score.
output: -0.702
